- Tested on: MDA-MB-231 multicell spheroids, viability
- Method summary: Anticancer human tumor MDA-MB-231 cell line growth inhibition [PI3K];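 also: spheroids exposed to agents for seven days before reading; percent of vehicle control luminescence with DMSO treated spheroids as 100%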
- Test conditions: second compound 1 µM; first compound 0.0949 µM; stronger effect = lower value
Quantity measured: viability, T/C (%)
Number only, in %; omit the unit.

Cn1cnc2c(F)c(Nc3ccc(Br)cc3Cl)c(C(=O)NOCCO)cc21 + CC(Nc1ccc2c(c1)OCCn1cc(N3C(=O)OCC3C(F)F)nc1-2)C(N)=O: 38.4

The compound Cn1cnc2c(F)c(Nc3ccc(Br)cc3Cl)c(C(=O)NOCCO)cc21 + COc1c(OCCCN2CCOCC2)ccc2c3n(c(=NC(=O)c4cnc(N)nc4)nc12)CCN3 showed viability, T/C equal to 12.5

The recorded viability, T/C for entry Cn1cnc2c(F)c(Nc3ccc(Br)cc3Cl)c(C(=O)NOCCO)cc21 + CC(Nc1ncnc2nc[nH]c12)c1cc2cccc(Cl)c2c(=O)n1-c1ccccc1 equals 37.7

viability, T/C in this record for Cn1cnc2c(F)c(Nc3ccc(Br)cc3Cl)c(C(=O)NOCCO)cc21 + Cc1nc(NC(=O)N2CCCC2C(N)=O)sc1-c1ccnc(C(C)(C)C(F)(F)F)c1 : 38.7

----------
- System: MDA-MB-231 multicell spheroids, viability
- Method summary: Anticancer human tumor MDA-MB-231 cell line growth inhibition [PI3K];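 also: spheroids exposed to agents for seven days before reading; percent of vehicle control luminescence with DMSO treated spheroids as 100%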
- Test conditions: second compound 0.316 µM; first compound 1 µM; stronger effect = lower value
viability, T/C strictly less than 70% = YES. Otherwise NO.

CC1(C)CCC(Nc2ncc(C(F)(F)F)c(-c3c[nH]c4c(P(C)(C)=O)c(C#N)ccc34)n2)CN1 (stereo not given) + CC(Nc1ccc2c(c1)OCCn1cc(N3C(=O)OCC3C(F)F)nc1-2)C(N)=O: YES
CNC(=O)c1ccc(N2C(=S)N(c3ccc(C#N)c(C(F)(F)F)c3)C(=O)C2(C)C)cc1F + Cc1nc(NC(=O)N2CCCC2C(N)=O)sc1-c1ccnc(C(C)(C)C(F)(F)F)c1: NO
CCCS(=O)(=O)Nc1ccc(F)c(C(=O)c2c[nH]c3ncc(-c4ccc(Cl)cc4)cc23)c1F + CC(Nc1ncnc2nc[nH]c12)c1cc2cccc(Cl)c2c(=O)n1-c1ccccc1: NO

Problem: Determine whether this compound shows viability, T/C lower than 70% (ties excluded): CC(Cn1ccc(-c2ccc(C#N)c(Cl)c2)n1)NC(=O)c1cc(C(C)O)[nH]n1 (stereo not given) + CC(Nc1ccc2c(c1)OCCn1cc(N3C(=O)OCC3C(F)F)nc1-2)C(N)=O
Result: YES

----------
- Test system: MDA-MB-231 multicell spheroids, viability
- Method summary: Anticancer human tumor MDA-MB-231 cell line growth inhibition [PI3K];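 also: spheroids exposed to agents for seven days before reading; percent of vehicle control luminescence with DMSO treated spheroids as 100%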
- Test conditions: second compound 0.01 µM; first compound 0.01 µM; stronger effect = lower value
Criterion: viability, T/C strictly under 70%. Met: Fulfilled. Not met: Not fulfilled.

Some solved entries appear below for comparison.
CCN1CCN(Cc2ccc(Nc3ncc(F)c(-c4cc(F)c5nc(C)n(C(C)C)c5c4)n3)nc2)CC1 + CC(Nc1ccc2c(c1)OCCn1cc(N3C(=O)OCC3C(F)F)nc1-2)C(N)=O: Not fulfilled
CC(C)n1nc(-c2ccc3oc(N)nc3c2)c2c(N)ncnc21 + CC(Nc1ccc2c(c1)OCCn1cc(N3C(=O)OCC3C(F)F)nc1-2)C(N)=O: Fulfilled
CCN1CCN(Cc2ccc(Nc3ncc(F)c(-c4cc(F)c5nc(C)n(C(C)C)c5c4)n3)nc2)CC1 + COc1c(OCCCN2CCOCC2)ccc2c3n(c(=NC(=O)c4cnc(N)nc4)nc12)CCN3: Fulfilled
CC(=O)c1c(C)c2cnc(Nc3ccc(N4CCNCC4)cn3)nc2n(C2CCCC2)c1=O + COc1c(OCCCN2CCOCC2)ccc2c3n(c(=NC(=O)c4cnc(N)nc4)nc12)CCN3: Fulfilled
Cn1ncnc1[C@H]1c2n[nH]c(=O)c3cc(F)cc(c23)N[C@@H]1c1ccc(F)cc1 + COc1c(OCCCN2CCOCC2)ccc2c3n(c(=NC(=O)c4cnc(N)nc4)nc12)CCN3: Fulfilled
Cn1ncnc1[C@H]1c2n[nH]c(=O)c3cc(F)cc(c23)N[C@@H]1c1ccc(F)cc1 + CC(Nc1ccc2c(c1)OCCn1cc(N3C(=O)OCC3C(F)F)nc1-2)C(N)=O: Not fulfilled

Now consider the entry below.
Problem: State whether 70% exceeds viability, T/C recorded for CC(C)n1nc(-c2ccc3oc(N)nc3c2)c2c(N)ncnc21 + COc1c(OCCCN2CCOCC2)ccc2c3n(c(=NC(=O)c4cnc(N)nc4)nc12)CCN3 .
Result: Fulfilled
